# PROTOCOL DESCRIPTION: FIG.15
Provide the recorded Stability (%) for the entries that follow.
Answers are plain numbers, in %.

> print(dat)
                                   molecule     observable  units.symbol  reading
1  NOCCO[C@H]1O[C@H](CCP(=O)(O)O)[C@@H](O)[C@H](O)[C@@H]1O.[Na].[Na]  Stability (%)             %       91

Hey, can you go through the list below and give me Stability (%) for every item?
1. COC(=O)CCCCCO[C@H]1O[C@H](CC(C(=O)[O-])C(=O)[O-])[C@@H](O)[C@H](O)[C@@H]1O.[Na+].[Na+]
2. NNC(=O)CCn1cc(CO[C@H]2O[C@H](CCP(=O)(O)O)[C@@H](O)[C@H](O)[C@@H]2O)nn1.[Na].[Na]
3. O=C[C@@H](O)[C@@H](O)[C@H](O)[C@H](O)COP(=O)(O)O [M6P, mannose 6-phosphate]

-- reply
[90, 90, 0]
